pIC50: −log10 of the molar value.
Observed pIC50, system Inhibitor of nuclear factor kappa-B kinase subunit beta (Homo sapiens, UniProt O14920).

COc1cc2ncn(-c3cc(OCc4ccccc4S(C)(=O)=O)c(C#N)s3)c2cc1OC [GSK-319347A] :: < 4.80
COc1c(C(N)=O)cc(-c2ccc(Cl)cc2)cc1-c1ccc(S(N)(=O)=O)cc1 [GSK-711701A] :: < 4.80

Q. Quick check: pIC50 on Inhibitor of nuclear factor kappa-B kinase subunit beta (Homo sapiens, UniProt O14920), item COc1c(C(N)=O)cc(-c2ccccc2)cc1-c1ccncc1 ?
A. < 4.80
